- assayed-target: CLK2 kinase (Homo sapiens, UniProt P49760)
- Sequence (P49760 whole entry): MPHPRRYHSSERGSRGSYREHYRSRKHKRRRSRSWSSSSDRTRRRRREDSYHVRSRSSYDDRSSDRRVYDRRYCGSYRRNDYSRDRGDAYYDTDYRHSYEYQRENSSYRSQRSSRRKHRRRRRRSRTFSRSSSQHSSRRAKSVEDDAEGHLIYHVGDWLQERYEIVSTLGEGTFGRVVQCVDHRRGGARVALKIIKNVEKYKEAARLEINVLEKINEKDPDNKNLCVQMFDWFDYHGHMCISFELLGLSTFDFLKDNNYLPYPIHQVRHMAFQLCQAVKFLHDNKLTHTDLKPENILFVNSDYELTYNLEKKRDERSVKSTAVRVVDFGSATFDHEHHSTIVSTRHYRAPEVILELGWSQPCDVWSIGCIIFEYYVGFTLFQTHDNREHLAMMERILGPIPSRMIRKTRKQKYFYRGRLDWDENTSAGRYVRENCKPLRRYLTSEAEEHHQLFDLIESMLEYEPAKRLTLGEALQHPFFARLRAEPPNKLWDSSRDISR
- assay-notes: CLK2 kinase activity assay (Z-lyte FRET);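 note: FRET read-out as coumarin to fluorescein emission ratio, unphosphorylated peptide as 0% and phosphorylated peptide as 100% controls, duplicate reactions, non-linear regression fit of dose-response curves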
- details: Z-lyte Ser/Thr 6 peptide, 60 μM ATP, 1 h at room temperature
pEC50: −log10 of the molar value.
recorded-endpoint: pEC50

I = c1cncc(-c2ccc3[nH]nc(-c4cc5cccnc5[nH]4)c3n2)c1 [compound 414]
II = FC1(F)CCN(Cc2cncc(-c3ccc4[nH]nc(-c5cc6cnccc6[nH]5)c4n3)c2)C1 [compound 446]
Task item: Which numeric pEC50 is bigger, that of I or that of II ? Identify your selection by its label.
Reply: II
(II: 9.00, I: 8.52)

A = CN(C)Cc1cncc(-c2cnc3[nH]nc(-c4cc5c(-c6cccc(F)c6)cncc5[nH]4)c3c2)c1 [compound 310]
B = Fc1ccc(-c2nccc3[nH]c(-c4n[nH]c5cnc(-c6cncc(CN7CCC(F)(F)C7)c6)cc45)cc23)cc1 [compound 316]
C = O=C(Nc1cc2cc(-c3cnn4c3CCNC4)ccc2cn1)c1ccc(OC(F)F)cc1 [compound 574]
Task item: Ascending sort, pEC50. # format: label list in the order the request specifies
Reply: B, A, C

P = CC(C)CC(=O)Nc1cncc(-c2ccc3[nH]nc(-c4cc5c(-c6ccncc6)cncc5[nH]4)c3c2)c1 [compound 388]
Q = O=C(Nc1cncc(-c2ccc3[nH]nc(-c4nc5c(-c6ccc(Cl)s6)cncc5[nH]4)c3n2)c1)C1CCC1 [compound 268]
Task item: For the two items P and Q , which reports the higher pEC50 value? Your answer should be the label of the entry you select.
Reply: P
